system-tested: Glycogen synthase kinase-3 beta (Homo sapiens)
Sequence (P49841 whole entry): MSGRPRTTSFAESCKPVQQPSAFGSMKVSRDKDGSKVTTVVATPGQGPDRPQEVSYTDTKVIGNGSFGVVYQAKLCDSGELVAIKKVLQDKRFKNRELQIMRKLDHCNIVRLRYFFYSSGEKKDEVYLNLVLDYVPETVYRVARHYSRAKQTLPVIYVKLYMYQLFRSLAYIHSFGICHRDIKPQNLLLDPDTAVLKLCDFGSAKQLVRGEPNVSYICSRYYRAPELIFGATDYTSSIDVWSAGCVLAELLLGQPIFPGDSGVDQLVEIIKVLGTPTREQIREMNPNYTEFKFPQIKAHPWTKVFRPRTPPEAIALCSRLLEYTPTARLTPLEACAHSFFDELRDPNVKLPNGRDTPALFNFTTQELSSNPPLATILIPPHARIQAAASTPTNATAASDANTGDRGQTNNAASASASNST
measurement-description: concentration-response blocking of human GSK3B – biochemical, luminescence, cell-free homogeneous, retest, dose response (AID 434954)

| substance-smiles | EC50 |
| --- | --- |
| COc1ccc(/C=C/C(=O)NC2CCN(Cc3ccccc3)CC2)cc1OC | > 300 µM |
| c1ccc(CSc2ccc3nnc(-c4ccccn4)n3n2)cc1 | > 300 µM |
| CCCn1cc(SCC(=O)NCc2ccco2)c2ccccc21 | > 300 µM |
| COCCN(CCOC)Cc1c(O)ccc2c1O/C(=C\c1ccco1)C2=O | > 300 µM |
| O=C(Cc1ccc(Cl)cc1)Nc1ncc([N+](=O)[O-])s1 | 30.4 µM |
